# tested target: SARS-CoV-2 3CLpro (Severe acute respiratory syndrome coronavirus 2, UniProt P0DTD1)
# protocol description: biochemical
# Type: biochemical
# conditions used: 4 h, sheet LOPAC_screen_w_protease; primary screen with protease, compound at 5 µM; replicate 2; read-out: Replicate_2
Counter-ions that a name gives are not always drawn.
quantity kind: inhibition at 5 µM

Known inhibition at 5 µM results, listed for orientation:
| compound | tested target | inhibition at 5 µM |
| --- | --- | --- |
| N[C@H]1CON=C1O | SARS-CoV-2 3CLpro (Severe acute respiratory syndrome coronavirus 2, UniProt P0DTD1) | 5.86% |
| CCC(C)N(C)C(=O)c1cc2ccccc2c(-c2ccccc2Cl)n1 (centres unmarked) | SARS-CoV-2 3CLpro (Severe acute respiratory syndrome coronavirus 2, UniProt P0DTD1) | 4.41% |
| CSC(N)=NCCC[C@H](N)C(=O)O [S-Methyl-L-thiocitrulline acetate] | SARS-CoV-2 3CLpro (Severe acute respiratory syndrome coronavirus 2, UniProt P0DTD1) | 3.04% |
| N#C/C(=C\c1ccc(O)c(O)c1)C(=O)NCc1ccccc1 | SARS-CoV-2 3CLpro (Severe acute respiratory syndrome coronavirus 2, UniProt P0DTD1) | 2.05% |
| CCOC(=O)c1ncn2c1CN(C)C(=O)c1cc(F)ccc1-2 | SARS-CoV-2 3CLpro (Severe acute respiratory syndrome coronavirus 2, UniProt P0DTD1) | 1.11% |
| OC[C@H]1NC[C@H](O)[C@@H](O)[C@@H]1O [1-Deoxynojirimycin hydrochloride] | SARS-CoV-2 3CLpro (Severe acute respiratory syndrome coronavirus 2, UniProt P0DTD1) | 1.54% |

Here is the next item to consider.
(Q) Identify the reported inhibition at 5 µM for the following entry. CN1C(C(=O)Nc2ccccn2)=C(O)c2ccccc2S1(=O)=O
(A) 4.12%

----------
Item-by-item account of inhibition at 5 µM
# tested target: SARS-CoV-2 3CLpro (Severe acute respiratory syndrome coronavirus 2, UniProt P0DTD1)
# protocol description: biochemical
# Format: biochemical
# conditions used: 4 h, sheet LOPAC_screen_w_protease; LOPAC1280 at 5 µM; mean of two replicates; read-out: mean
Counter-ions that a name gives are not always drawn.
Entry rule: numbers only, all in %.

Known inhibition at 5 µM results, listed for orientation:
| compound | inhibition at 5 µM, % |
| --- | --- |
| CC(C)(C)NCC(O)c1ccc(O)c(CO)c1 (centres unmarked) [Salbutamol] | 1.09 |
| CC(N/C(=N\C#N)Nc1ccncc1)C(C)(C)C (centres unmarked) [Pinacidil] | 1.05 |
| C[C@]12CCC(=O)C=C1CC[C@@H]1[C@@H]2[C@@H](O)C[C@@]2(C)[C@H]1CC[C@]2(O)C(=O)CO [Hydrocortisone] | 1.15 |
| CN(C)CCCC1(c2ccc(F)cc2)OCc2cc(C#N)ccc21 (centres unmarked) [Citalopram hydrobromide] | 1.26 |
| CC(C(=O)O)c1ccc(CC2CCCC2=O)cc1 (centres unmarked) [loxoprofen] | 1.2 |
| Nc1ccn([C@H]2CC[C@@H](CO)O2)c(=O)n1 [2',3'-dideoxycytidine] | 1.06 |
| Cc1oncc1C(=O)Nc1ccc(C(F)(F)F)cc1 [Leflunomide] | 1.27 |
| CC(C)(C)NCC(O)c1ccccc1Cl (centres unmarked) [Tulobuterol hydrochloride] | 0.895 |
| COc1ccccc1OCC(O)CN1CCN(CC(=O)Nc2c(C)cccc2C)CC1 (centres unmarked) [Ranolazine dihydrochloride] | 0.975 |
| CCN(CC)CCNC(=O)c1cc(S(C)(=O)=O)ccc1OC [Tiapride hydrochloride] | 1.21 |

(Q) Identify the reported inhibition at 5 µM for the following entry. OCCN1CCN(CCCN2c3ccccc3Sc3ccc(Cl)cc32)CC1 [Perphenazine]
(A) 1.14

----------
# tested target: SARS-CoV-2 3CLpro (Severe acute respiratory syndrome coronavirus 2, UniProt P0DTD1)
# protocol description: biochemical
# Format: biochemical
# Design: unit not given here
# conditions used: sheet LOPAC_screen_w_protease; primary screen with protease, 5 µM; replicate 2
Binning rule for recorded Replicate_2: one (below -1), two (-1 to below -0.1), three (-0.1 or more)

(Q) Which class holds Brc1ccc([C@H]2CN3CCSC3=N2)cc1.O=C(O)C(=O)O [S(-)-p-Bromotetramisole oxalate] ?
(A) two

(Q) Which class holds COC(=O)c1c(C)[nH]c(C)c1C(=O)c1ccccc1Cc1ccccc1 ?
(A) one

----------
Item-by-item account of pEC50
# tested target: SARS-CoV-2 3CLpro (Severe acute respiratory syndrome coronavirus 2, UniProt P0DTD1)
# protocol description: biochemical
# Assay type: biochemical
# conditions used: without Triton X-100; mean ± SD of triplicate; 4 h, 30 °C; read-out: B) EC50 without Triton X-100
Conceptually, pEC50 converts a concentration in mol/L into minus its log10.

Known pEC50 results, listed for orientation:
| compound | tested target | pEC50 |
| --- | --- | --- |
| O=Nc1ccc2oc(=O)ccc2c1 [6-Nitroso-1,2-benzopyrone, reference compound] | SARS-CoV-2 3CLpro (Severe acute respiratory syndrome coronavirus 2, UniProt P0DTD1) | 6.25 |
| CC(C)N(CCC(=O)c1ccc2ccccc2c1)Cc1ccccc1 | SARS-CoV-2 3CLpro (Severe acute respiratory syndrome coronavirus 2, UniProt P0DTD1) | 6.54 |
| N.S=C(S)N1CCCC1 | SARS-CoV-2 3CLpro (Severe acute respiratory syndrome coronavirus 2, UniProt P0DTD1) | 5.82 |
| C[N+](C)(C)CCC(=O)c1cccc2ccccc12 | SARS-CoV-2 3CLpro (Severe acute respiratory syndrome coronavirus 2, UniProt P0DTD1) | 6.61 |

(Q) Identify the reported pEC50 for the following entry. CC(=O)NCCc1ccc(O)c(O)c1
(A) 5.84

(Q) Identify the reported pEC50 for the following entry. O=C1O/C(=C/Br)CCC1c1cccc2ccccc12 (centres unmarked) [Bromoenol lactone, reference compound]
(A) 6.12

(Q) Identify the reported pEC50 for the following entry. C[n+]1cc2c3c(ccc2c2ccc4cc5c(cc4c21)OCO5)OCO3
(A) 5.65

(Q) Identify the reported pEC50 for the following entry. C=CCN1CCc2cccc3c2[C@H]1Cc1ccc(O)c(O)c1-3 [R(−)-N-Allylnorapomorphine]
(A) 6.42

----------
# tested target: SARS-CoV-2 3CLpro (Severe acute respiratory syndrome coronavirus 2, UniProt P0DTD1)
# protocol description: biochemical
# Type: biochemical
# conditions used: sheet LOPAC_screen_w_protease; primary screen at 5 µM; mean of two replicates
// assign 1 (yes) if mean (LOPAC screen with protease) falls strictly below 20, else 0 (no) (ties count as 0 (no))

Example cases with answers are listed next.
| compound | assigned label |
| --- | --- |
| NC(=O)CI [Iodoacetamide] | 1 (yes) |
| COc1ccc2c(c1)CC[C@@H]1[C@@H]2CC[C@]2(C)[C@@H](NCCCCCCN3C(=O)C=CC3=O)CC[C@@H]12 [U-73122, reference compound] | 0 (no) |
| Br.Br.NC(N)=NCCSSCCN=C(N)N [Guanidinoethyl disulfide dihydrobromide] | 0 (no) |
| CN(C)CCCCSC(=N)N.Cl.Cl [SKF 91488 dihydrochloride] | 1 (yes) |

(Q) Decide: mean (LOPAC screen with protease) of CCC(NC(C)C)C(O)c1ccc(O)c(O)c1.CS(=O)(=O)O (stereo not drawn) [Isotharine mesylate] strictly below 20?
(A) 1 (yes)

(Q) Decide: mean (LOPAC screen with protease) of CN(C)C(=O)N=NC(=O)N(C)C [N,N,N',N'-Tetramethylazodicarboxamide] strictly below 20?
(A) 0 (no)

----------
Item-by-item account of Replicate_2
# tested target: SARS-CoV-2 3CLpro (Severe acute respiratory syndrome coronavirus 2)
# protocol description: biochemical
# Format: biochemical
# Set-up: unit not given here
# conditions used: sheet LOPAC_screen_w_protease; LOPAC1280 primary screen at 5 µM, with protease; replicate 2
Lab note: jot down the number only; don't add units.

| compound | tested target | Replicate_2 |
| --- | --- | --- |
| Cl.NCCCCNS(=O)(=O)c1ccc2c(Cl)cccc2c1 | SARS-CoV-2 3CLpro (Severe acute respiratory syndrome coronavirus 2) | 0.4798 |
| CCN(CC)C(=O)N[C@H]1C[C@@H]2c3cccc4[nH]cc(c34)C[C@H]2N(C)C1 [R(+)-Terguride] | SARS-CoV-2 3CLpro (Severe acute respiratory syndrome coronavirus 2) | -0.08256 |
| c1ccc(-c2ccccn2)nc1 [2,2'-Bipyridyl] | SARS-CoV-2 3CLpro (Severe acute respiratory syndrome coronavirus 2) | -2.2286 |

(Q) Identify the reported Replicate_2 for the following entry. CCn1cnc2c(Nc3cccc(Cl)c3)nc(N[C@@H]3CCCC[C@@H]3N)nc21.Cl [CGP-74514A hydrochloride]
(A) -0.4753

(Q) Identify the reported Replicate_2 for the following entry. Cl.NCCc1ccc(S(=O)(=O)F)cc1
(A) 0.1751

----------
# tested target: SARS-CoV-2 3CLpro (Severe acute respiratory syndrome coronavirus 2)
# protocol description: biochemical
# Type: biochemical
# Set-up: unit not given here
# conditions used: sheet LOPAC_screen_w_protease; primary screen with protease, replicate 1
Binary call on Replicate_1: label 1 from 2 upward, label 0 beneath that.

| compound | assigned label |
| --- | --- |
| C[N+]1(C)CCc2cc3c(cc2[C@H]1[C@@H]1OC(=O)c2c1ccc1c2OCO1)OCO3.[Br-] [(-)-Bicuculline methbromide, 1(S), 9(R)] | label 0 |
| Cl.N=C(N)NN [Aminoguanidine hydrochloride] | label 1 |
| CC(/C=C/c1cccc(Oc2ccc(F)cc2)c1)N(O)C(N)=O (stereo not shown) [BWB70C] | label 1 |
| O=S1(=O)N(CCN2CC=C(c3c[nH]c4cc(F)ccc34)CC2)c2cccc3c2N1CCC3 | label 0 |
| Cl.N[C@@H](CCl)C(=O)O [beta-Chloro-L-alanine hydrochloride] | label 1 |

(Q) Exam item: decide whether the reported Replicate_1 for CC(=O)O.NC(=NCCC[C@H](N)C(=O)O)NO [NG-Hydroxy-L-arginine acetate] is at least 2.
(A) label 1

(Q) Exam item: decide whether the reported Replicate_1 for CCCCN1CCC(COC(=O)c2cc(Cl)c(N)c3c2OCCO3)CC1.Cl [SB 204070 hydrochloride] is at least 2.
(A) label 0

(Q) Exam item: decide whether the reported Replicate_1 for Cl.Clc1cc(I)cc(Cl)c1NC1=NCCN1 [p-Iodoclonidine hydrochloride] is at least 2.
(A) label 1

(Q) Exam item: decide whether the reported Replicate_1 for NC(N)=NCc1cccc(I)c1.NC(N)=NCc1cccc(I)c1.O=S(=O)(O)O [m-Iodobenzylguanidine hemisulfate] is at least 2.
(A) label 0
